- Target entity: human glucagon receptor (Homo sapiens, UniProt P47871)
- Construct: expressed in transfected cells; host or cells: CHO-K1 cells, stably transfected
- Sequence (P47871 26-477): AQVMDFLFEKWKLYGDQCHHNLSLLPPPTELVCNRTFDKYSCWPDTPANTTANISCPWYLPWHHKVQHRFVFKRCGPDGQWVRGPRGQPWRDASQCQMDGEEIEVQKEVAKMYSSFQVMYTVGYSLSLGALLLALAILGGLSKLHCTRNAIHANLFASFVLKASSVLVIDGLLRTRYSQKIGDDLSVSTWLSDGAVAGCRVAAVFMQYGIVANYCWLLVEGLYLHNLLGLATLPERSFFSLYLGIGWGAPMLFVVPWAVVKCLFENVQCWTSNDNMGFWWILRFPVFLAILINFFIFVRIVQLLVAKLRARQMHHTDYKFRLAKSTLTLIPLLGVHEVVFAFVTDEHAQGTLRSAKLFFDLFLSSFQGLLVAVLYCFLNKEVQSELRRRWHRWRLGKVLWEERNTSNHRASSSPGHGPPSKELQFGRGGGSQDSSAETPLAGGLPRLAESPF
- Protocol text: Glucagon cAMP assay (Cisbio cAMP detection); note: 100 pM glucagon challenge
- Type: cell-based
- Protocol: The Cisbio cAMP detection assay is used to determine the ability of punitive glucagon antagonist to block glucagon induced cAMP production. Potential glucagon antagonists are re-suspended and diluted in 100% DMSO. […] Plates are incubated for an additional 60 min at room temperature prior to being read on the Perkin Elmer fluorescent plate reader. […] Converted data is then analyzed using the Pfizer data analysis program. IC50 values are determined from the generated sigmoidal dose response curves. […]
Reported property: Kb (nM)
# unit: nM | format: bare number

- Cc1ccc(C)c(-c2ccc(C(CC(C)C)Nc3ccc(C(=O)NCCC(=O)O)cn3)cc2)c1 (racemic) [Example 1.49]: 750
- CC(C)CC(Nc1cnc(-c2ccc(C(F)(F)F)cc2)nc1)c1ccc(C(=O)NCCC(=O)O)cc1 (stereo not shown) [Example 4.31]: 55
- O=C(O)CCNC(=O)c1ccc(NC(c2ccc(-c3ccc(C(F)(F)F)cc3)cc2)C2CCCOC2)nc1 (stereo not shown) [Example 4.34]: 120

Please find the next molecule below.
// query Under human glucagon receptor (Homo sapiens, UniProt P47871): Kb value of CC(C)CC(Nc1ccc(C(=O)NCCC(=O)O)cn1)c1ccc(-c2ccc(C(F)(F)F)cc2)nc1 (racemic) [Example 1.29] ?
// result 160
